experimental-details: Approximate solubility in single solvents at RT
Assay type: physicochemical
condition-context: organic solvent or mixture, thermodynamic from solid; EtOAc, room temperature
value-kind: solubility

Which solubility value is on record for `OCCOCCOCCOCCOc1ccc(-c2nc3ccccc3s2)cc1` ?
20 to 40 mg/mL

* * *

experimental-details: Approximate solubility in single solvents at RT
Type: physicochemical
condition-context: organic solvent or mixture, thermodynamic from solid; MeOH, room temperature
value-kind: solubility

Which solubility value is on record for OCCOCCOCCOCCOc1ccc(-c2nc3ccccc3s2)cc1 [Compound I] ?
21 to 42 mg/mL

* * *

experimental-details: Approximate solubility in single solvents at RT
Format: physicochemical
condition-context: organic solvent or mixture, thermodynamic from solid; THF, room temperature
value-kind: solubility

Which solubility value is on record for `OCCOCCOCCOCCOc1ccc(-c2nc3ccccc3s2)cc1` ?
> 36 mg/mL

* * *

experimental-details: Approximate solubility in single solvents at RT
Format: physicochemical
condition-context: organic solvent or mixture, thermodynamic from solid; EtOH, room temperature
Procedure: Approximate solubility of Compound I was determined in 20 single solvents at RT. Approximately 2 mg of powder sample was added into a 3-mL glass vial. Corresponding solvents were added stepwise (50 μL→100 μL→300 μL→1000 μL) into each vial until powder solids were completely dissolved visually or a total volume of 1 mL solvent was added. Approximate solubility values were calculated based on sample mass, solvent volume, and experimental observation. […]
value-kind: solubility

Which solubility value is on record for OCCOCCOCCOCCOc1ccc(-c2nc3ccccc3s2)cc1 [Compound I] ?
7.3 to 22 mg/mL

* * *

experimental-details: Approximate solubility in single solvents at RT
Assay type: physicochemical
condition-context: organic solvent or mixture, thermodynamic from solid; DMF, room temperature
value-kind: solubility

Which solubility value is on record for `OCCOCCOCCOCCOc1ccc(-c2nc3ccccc3s2)cc1` ?
> 44 mg/mL

* * *

experimental-details: Approximate solubility in single solvents at RT
Assay type: physicochemical
condition-context: organic solvent or mixture, thermodynamic from solid; 1,4-dioxane, room temperature
value-kind: solubility

Which solubility value is on record for `OCCOCCOCCOCCOc1ccc(-c2nc3ccccc3s2)cc1` ?
> 32 mg/mL

* * *

experimental-details: Approximate solubility in single solvents at RT
Type: physicochemical
condition-context: organic solvent or mixture, thermodynamic from solid; DCM, room temperature
value-kind: solubility

Which solubility value is on record for `OCCOCCOCCOCCOc1ccc(-c2nc3ccccc3s2)cc1` ?
> 38 mg/mL

* * *

experimental-details: Approximate solubility in single solvents at RT
Type: physicochemical
condition-context: organic solvent or mixture, thermodynamic from solid; IPAc, room temperature
value-kind: solubility

Which solubility value is on record for `OCCOCCOCCOCCOc1ccc(-c2nc3ccccc3s2)cc1` ?
1700 to 5700 µg/mL

* * *

experimental-details: Approximate solubility in single solvents at RT
Assay type: physicochemical
condition-context: organic solvent or mixture, thermodynamic from solid; Toluene, room temperature
value-kind: solubility

Which solubility value is on record for `OCCOCCOCCOCCOc1ccc(-c2nc3ccccc3s2)cc1` ?
6 to 18 mg/mL

* * *

experimental-details: Approximate solubility in single solvents at RT
Format: physicochemical
condition-context: water, thermodynamic from solid; H2O, room temperature
value-kind: solubility

Which solubility value is on record for OCCOCCOCCOCCOc1ccc(-c2nc3ccccc3s2)cc1 [Compound I] ?
< 1800 µg/mL

* * *

experimental-details: Approximate solubility in single solvents at RT
Format: physicochemical
condition-context: organic solvent or mixture, thermodynamic from solid; MEK, room temperature
value-kind: solubility

Which solubility value is on record for `OCCOCCOCCOCCOc1ccc(-c2nc3ccccc3s2)cc1` ?
18 to 36 mg/mL

* * *

experimental-details: Approximate solubility in single solvents at RT
Format: physicochemical
condition-context: organic solvent or mixture, thermodynamic from solid; MTBE, room temperature
Protocol: Approximate solubility of Compound I was determined in 20 single solvents at RT. Approximately 2 mg of powder sample was added into a 3-mL glass vial. Corresponding solvents were added stepwise (50 μL→100 μL→300 μL→1000 μL) into each vial until powder solids were completely dissolved visually or a total volume of 1 mL solvent was added. Approximate solubility values were calculated based on sample mass, solvent volume, and experimental observation. […]
value-kind: solubility

Which solubility value is on record for OCCOCCOCCOCCOc1ccc(-c2nc3ccccc3s2)cc1 [Compound I] ?
< 2 mg/mL

* * *

experimental-details: Approximate solubility in single solvents at RT
Format: physicochemical
condition-context: organic solvent or mixture, thermodynamic from solid; Acetone, room temperature
value-kind: solubility

Which solubility value is on record for `OCCOCCOCCOCCOc1ccc(-c2nc3ccccc3s2)cc1` ?
6 to 18 mg/mL

* * *

experimental-details: Approximate solubility in single solvents at RT
Type: physicochemical
condition-context: organic solvent or mixture, thermodynamic from solid; IPA, room temperature
value-kind: solubility

Which solubility value is on record for `OCCOCCOCCOCCOc1ccc(-c2nc3ccccc3s2)cc1` ?
< 1900 µg/mL

These measurements were taken from patent US12486287B2.
